- METHOD_NOTES: clinical
- TEST_PARAMETERS: male, human, in vivo
OBSERVED_PROPERTY: half-life

1. COc1cc2c(cc1OC)[C@H]1CC(=O)[C@H](CC(C)C)CN1CC2 :: ~8.5 h
